Measured values drawn from patent US20210145795A1 for this set.

testDetails: in vitro
conditionDetails: pig
measurementName: CC50 (µM)
Report only the number, with the unit µM understood.

Task: Any idea what its CC50 is? The compound is C/C=C(/C)C(=O)O[C@H]1C(C)=C2[C@H]([C@@H]1OC(=O)CCCCCCC)[C@@](C)(OC(C)=O)C[C@H](OC(=O)CCC)[C@@]1(O)[C@H]2OC(=O)[C@@]1(C)O
Output: 56.6

---

testDetails: in vitro
conditionDetails: human
measurementName: CC50 (µM)
Report only the number, with the unit µM understood.

Task: Any idea what its CC50 is? The molecule is C/C=C(/C)C(=O)O[C@H]1C(C)=C2[C@H]([C@@H]1OC(=O)CCCCCCC)[C@@](C)(OC(C)=O)C[C@H](OC(=O)CCC)[C@@]1(O)[C@H]2OC(=O)[C@@]1(C)O [TG, thapsigargin]
Output: 33.5
